# experimentalTarget: mScarlet-I-PCNA (human, UniProt P12004 1-261)
# Sequence (P12004 whole entry): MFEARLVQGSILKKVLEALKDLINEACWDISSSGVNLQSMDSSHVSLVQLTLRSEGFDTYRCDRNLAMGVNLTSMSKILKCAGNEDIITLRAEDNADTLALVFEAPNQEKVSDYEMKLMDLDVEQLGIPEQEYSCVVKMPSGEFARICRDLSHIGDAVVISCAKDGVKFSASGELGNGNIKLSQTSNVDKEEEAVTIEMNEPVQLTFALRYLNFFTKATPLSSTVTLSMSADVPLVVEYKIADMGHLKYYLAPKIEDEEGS
# testMethodNotes: FRET or BRET; competition: 1 µM p15-mNeonGreen and 1 µM mScarlet-I-PCNA with varying inhibitor (0-100 µM p15^51-70, 0-20 µM unlabeled PCNA), 1 h at 37 °C, PBS with 1 mM DTT; sensitized emission; Ki by the Cheng-Prusoff equation
# appliedConditions: both partners purified
experimentalReadout: pIC50
Answers are plain numbers, as −log10 of the molar value.

Request: Reported pIC50, binder NPVCVRPTPKWQKGIGEFFR [peptide p15^51–70] : ____
Result: 5.01
